Target: nucleolin (Homo sapiens)
Construct: without the N-terminal acidic stretches domain
Sequence (P19338 284-710 limits assumed): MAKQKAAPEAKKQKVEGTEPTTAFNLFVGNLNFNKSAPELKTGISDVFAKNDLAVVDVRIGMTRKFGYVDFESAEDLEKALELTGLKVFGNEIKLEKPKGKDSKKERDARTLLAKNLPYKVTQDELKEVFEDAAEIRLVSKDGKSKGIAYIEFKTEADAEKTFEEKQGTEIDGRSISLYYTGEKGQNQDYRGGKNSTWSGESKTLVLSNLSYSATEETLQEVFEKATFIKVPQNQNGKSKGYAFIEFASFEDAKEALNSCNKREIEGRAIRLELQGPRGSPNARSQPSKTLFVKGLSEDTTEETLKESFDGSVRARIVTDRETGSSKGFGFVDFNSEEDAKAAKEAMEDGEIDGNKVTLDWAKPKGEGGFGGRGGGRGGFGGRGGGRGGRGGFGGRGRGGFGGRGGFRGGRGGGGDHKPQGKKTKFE
Assay: Nucleolin/nucleic acid ligand gel retardation binding assay
Parameters: key: A “+” represents the weakest nucleolin affinity; a “++++” represents the strongest nucleolin affinity
Conditions: relative affinity of nucleic acid ligand for recombinant nucleolin (MBP fusion)
ENDPOINT: Affinity for Nucleolin

Please review the entries below; each comes with its answer.
- SUBSTANCE: "7733T: nucleic acid ligand derived from human ribosomal DNA: GGGAGGGGCACGGGCCGGGGGCGGGACGGG (chemistry not given here) [Compound 7733T]"
  Affinity for Nucleolin: "+"
- SUBSTANCE: "8749NT: nucleic acid ligand derived from human ribosomal DNA: GGGAGGGCGCGCGGGTCGGGG (chemistry not given here) [Compound 8749NT]"
  Affinity for Nucleolin: "+"
- SUBSTANCE: "1196NT: nucleic acid ligand derived from human ribosomal DNA: GGGTGGACGGGGGGGCCTGGTGGGG (chemistry not given here) [Compound 1196NT]"
  Affinity for Nucleolin: "+"
- SUBSTANCE: "6183NT: nucleic acid ligand derived from human ribosomal DNA: GGGTCGGGGGCGGTGGTGGGCCCGCGGGGG (chemistry not given here) [Compound 6183NT]"
  Affinity for Nucleolin: "+"
- SUBSTANCE: "11028NT: nucleic acid ligand derived from human ribosomal DNA: GGGGCGCGGCGGGGGGAGAAGGGTCGGGGCGGCAGGGG (chemistry not given here) [Compound 11028NT]"
  Affinity for Nucleolin: "+"

Find the recorded Affinity for Nucleolin belonging to 8511NT: nucleic acid ligand derived from human ribosomal DNA: GGGGGTGGGCGGGCGGGGCCGGGGGTGGG (chemistry not given here) [Compound 8511NT] and report it.
++++

---

Tested on: HCT-116
Test: HCT-116 MTS cell viability assay
Assay type: cell-based
Settings: Homo sapiens, HCT-116 cells
ENDPOINT: log10(IC50) (log10 of the value in nM)
Recall that a logarithmic scale is used here: each number is log10 of IC50 in nM.

Some compounds with recorded log10(IC50):
- COMPOUND: "CCOC(=O)c1c(=O)c2cc(Br)sc2n2c1sc1ccccc12"
  log10(IC50): 4.00
- COMPOUND: "O=C(NCCN1CCCC1)c1c(=O)c2cc(N3CCCC3)sc2n2c1sc1ccccc12"
  log10(IC50): 1.70
- COMPOUND: "O=C(NCCN1CCOCC1)c1c(=O)c2ccsc2n2c1sc1ccccc12"
  log10(IC50): 3.32
- COMPOUND: "O=C(NCc1ccccn1)c1c(=O)c2ccsc2n2c1sc1ccccc12"
  log10(IC50): 3.31
- COMPOUND: "CCOC(=O)c1c(=O)c2ccsc2n2c1[nH]c1ccccc12"
  log10(IC50): 4.00

Reported log10(IC50) for O=C(NCCN1CCCC1)c1c(=O)c2ccsc2n2c1sc1ccccc12 : what is it?
1.60

Sample CCOC(=O)c1c(=O)c2ccsc2n2c1[nH]c1cc3ccccc3cc12 — what was its log10(IC50)?
3.60

Request the reported log10(IC50) associated with O=C(NCCN1CCCC1)c1c(=O)c2cc(Cl)sc2n2c1sc1ccccc12
1.00

Field request: log10(IC50) | item: CCOC(=O)c1c(=O)c2cc(Cl)sc2n2c1sc1ccccc12
4.00

Query: log10(IC50); subject: CCOC(=O)c1c(=O)c2ccsc2n2c1sc1ccccc12
3.99

Endpoint output: log10(IC50) of Cn1c2ccccc2n2c3sccc3c(=O)c(C(=O)NCCN3CCCC3)c12 . Value?
3.51

For the compound shown here, Cn1c2cc3ccccc3cc2n2c3sccc3c(=O)c(C(=O)NCCN3CCCC3)c12 , give the reported log10(IC50).
2.48
